This listing pairs compounds with measured AC50.
# targetOrSystem: Estrogen receptor (Homo sapiens) (UniProt P03372)
# Sequence (P03372 whole entry, looked up): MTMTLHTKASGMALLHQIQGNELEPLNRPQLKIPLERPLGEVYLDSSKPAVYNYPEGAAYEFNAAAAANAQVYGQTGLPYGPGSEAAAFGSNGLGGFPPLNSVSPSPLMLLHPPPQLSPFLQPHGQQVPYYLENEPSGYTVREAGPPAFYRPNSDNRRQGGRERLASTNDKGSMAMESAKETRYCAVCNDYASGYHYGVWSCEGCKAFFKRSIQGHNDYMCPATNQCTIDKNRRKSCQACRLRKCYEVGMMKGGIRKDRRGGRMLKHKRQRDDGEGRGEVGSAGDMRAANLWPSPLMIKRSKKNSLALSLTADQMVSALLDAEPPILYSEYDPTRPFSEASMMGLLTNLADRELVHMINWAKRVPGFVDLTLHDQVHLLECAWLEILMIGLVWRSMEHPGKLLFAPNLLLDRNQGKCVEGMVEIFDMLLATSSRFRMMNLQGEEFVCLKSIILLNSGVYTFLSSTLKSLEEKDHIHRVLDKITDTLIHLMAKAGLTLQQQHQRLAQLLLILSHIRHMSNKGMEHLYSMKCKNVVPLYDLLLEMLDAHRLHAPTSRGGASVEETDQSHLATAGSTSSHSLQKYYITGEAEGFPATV
# experimentDescription: ATG_hERa_XSP1: Attagene TRANS-FACTORIAL Multi-Species (XSP1) HepG2 Assay for human Estrogen Receptor (ESR1) (AID 2283780)
# Description: ATG_XSP1_multi-species_TRANS is a cell-based, multiplexed assay created by modifying the existing Attagene TRANS-FACTORIAL system to include a panel of nuclear receptors from some or all the following species: human (Homo sapiens), mouse (Mus musculus), frog (Xenopus laevis), zebrafish (Danio rerio), chicken (Gallus gallus), and turtle (Chrysemys picta). The ECOTOX-FACTORIAL format uses HepG2, a human liver cell line, with measurements taken at 24 hours after chemical dosing in a 24-well plate. […]
Inconclusive results are not listed. The source made the active and inactive calls. How the source made its calls: active means hit-call score of the fitted dose curve at least 0.9, where 1 is the maximum; inconclusive means response in the unintended direction; inactive means score below 0.9.

compound: CC1(C)C(C=C(Cl)Cl)C1C(=O)OC(C#N)c1cccc(Oc2ccccc2)c1 (stereo not given)
AC50: 1.45 µM (active)
--
compound: CC1(C)CCC(=Cc2ccc(Cl)cc2)C1(O)Cn1cncn1 (stereo not given)
AC50: 3.95 µM (active)
--
compound: CC(C)NC(=O)N1CC(=O)N(c2cc(Cl)cc(Cl)c2)C1=O
AC50: 10.3 µM (active)
--
compound: CSC(=O)c1c(C(F)F)nc(C(F)(F)F)c(C(=O)SC)c1CC(C)C
AC50: 6.12 µM (active)
